Overview of recorded IC50 for various binders
SUBJECT_OF_TEST: T1, NP-1/Fc (R&D Systems)
T1 construct: Bought reagent; also called Neuropilin-1/Fc; Npn-1
ASSAY_SUMMARY: competition with 250 pM 125I-VEGF165 for plate-coated NP-1/Fc
Non-standard residues stand in square brackets, D forms with d. No end group written: not given here. AEEA = NCCOCCOCC(=O)O
Only the number, expressed in µM, is required.

Ask: For [AEEA]TKPPR (also: tetramer of four TKPPR on a branched non-peptide scaffold, one Oregon Green label on scaffold, also called tetrameric TKPPR; fluorescently-labeled TKPPR tetramer) [TKPPR tetramer D41, OG-(TKPPR)4] , what is its reported IC50?
Result: 0.13

Ask: For [AEEA]TKPPR (also: dimer on branched bis-acid scaffold carrying one Oregon Green) [TKPPR dimer D40, OG-(TKPPR)2] , what is its reported IC50?
Result: 3

Ask: For TKPPR (also: tetramer: C-terminal Arg of each TKPPR linked to amino groups of branched Lys-Lys(Lys)-Gly core, Gly carries TTDA-Oregon Green, The lysine core (three Lys and one Gly) is not written as a chain of its own; also called Reverse Tetramer; compound 16) [TKPPR tetramer D43 on a lysine core with trioxa Oregon Green at the C-terminal] , what is its reported IC50?
Result: 8

Ask: For TKPPR (also called D45; TKPPR-OH) [TKPPR (L-threonyl-L-lysyl-L-prolyl-L-prolyl-L-arginine)] , what is its reported IC50?
Result: 43
